From: patent US11174268B2

- system.tested: NaV1.5 (Homo sapiens (Human))
- Sequence (Q14524 other isoform, or with tags, fused parts or gaps): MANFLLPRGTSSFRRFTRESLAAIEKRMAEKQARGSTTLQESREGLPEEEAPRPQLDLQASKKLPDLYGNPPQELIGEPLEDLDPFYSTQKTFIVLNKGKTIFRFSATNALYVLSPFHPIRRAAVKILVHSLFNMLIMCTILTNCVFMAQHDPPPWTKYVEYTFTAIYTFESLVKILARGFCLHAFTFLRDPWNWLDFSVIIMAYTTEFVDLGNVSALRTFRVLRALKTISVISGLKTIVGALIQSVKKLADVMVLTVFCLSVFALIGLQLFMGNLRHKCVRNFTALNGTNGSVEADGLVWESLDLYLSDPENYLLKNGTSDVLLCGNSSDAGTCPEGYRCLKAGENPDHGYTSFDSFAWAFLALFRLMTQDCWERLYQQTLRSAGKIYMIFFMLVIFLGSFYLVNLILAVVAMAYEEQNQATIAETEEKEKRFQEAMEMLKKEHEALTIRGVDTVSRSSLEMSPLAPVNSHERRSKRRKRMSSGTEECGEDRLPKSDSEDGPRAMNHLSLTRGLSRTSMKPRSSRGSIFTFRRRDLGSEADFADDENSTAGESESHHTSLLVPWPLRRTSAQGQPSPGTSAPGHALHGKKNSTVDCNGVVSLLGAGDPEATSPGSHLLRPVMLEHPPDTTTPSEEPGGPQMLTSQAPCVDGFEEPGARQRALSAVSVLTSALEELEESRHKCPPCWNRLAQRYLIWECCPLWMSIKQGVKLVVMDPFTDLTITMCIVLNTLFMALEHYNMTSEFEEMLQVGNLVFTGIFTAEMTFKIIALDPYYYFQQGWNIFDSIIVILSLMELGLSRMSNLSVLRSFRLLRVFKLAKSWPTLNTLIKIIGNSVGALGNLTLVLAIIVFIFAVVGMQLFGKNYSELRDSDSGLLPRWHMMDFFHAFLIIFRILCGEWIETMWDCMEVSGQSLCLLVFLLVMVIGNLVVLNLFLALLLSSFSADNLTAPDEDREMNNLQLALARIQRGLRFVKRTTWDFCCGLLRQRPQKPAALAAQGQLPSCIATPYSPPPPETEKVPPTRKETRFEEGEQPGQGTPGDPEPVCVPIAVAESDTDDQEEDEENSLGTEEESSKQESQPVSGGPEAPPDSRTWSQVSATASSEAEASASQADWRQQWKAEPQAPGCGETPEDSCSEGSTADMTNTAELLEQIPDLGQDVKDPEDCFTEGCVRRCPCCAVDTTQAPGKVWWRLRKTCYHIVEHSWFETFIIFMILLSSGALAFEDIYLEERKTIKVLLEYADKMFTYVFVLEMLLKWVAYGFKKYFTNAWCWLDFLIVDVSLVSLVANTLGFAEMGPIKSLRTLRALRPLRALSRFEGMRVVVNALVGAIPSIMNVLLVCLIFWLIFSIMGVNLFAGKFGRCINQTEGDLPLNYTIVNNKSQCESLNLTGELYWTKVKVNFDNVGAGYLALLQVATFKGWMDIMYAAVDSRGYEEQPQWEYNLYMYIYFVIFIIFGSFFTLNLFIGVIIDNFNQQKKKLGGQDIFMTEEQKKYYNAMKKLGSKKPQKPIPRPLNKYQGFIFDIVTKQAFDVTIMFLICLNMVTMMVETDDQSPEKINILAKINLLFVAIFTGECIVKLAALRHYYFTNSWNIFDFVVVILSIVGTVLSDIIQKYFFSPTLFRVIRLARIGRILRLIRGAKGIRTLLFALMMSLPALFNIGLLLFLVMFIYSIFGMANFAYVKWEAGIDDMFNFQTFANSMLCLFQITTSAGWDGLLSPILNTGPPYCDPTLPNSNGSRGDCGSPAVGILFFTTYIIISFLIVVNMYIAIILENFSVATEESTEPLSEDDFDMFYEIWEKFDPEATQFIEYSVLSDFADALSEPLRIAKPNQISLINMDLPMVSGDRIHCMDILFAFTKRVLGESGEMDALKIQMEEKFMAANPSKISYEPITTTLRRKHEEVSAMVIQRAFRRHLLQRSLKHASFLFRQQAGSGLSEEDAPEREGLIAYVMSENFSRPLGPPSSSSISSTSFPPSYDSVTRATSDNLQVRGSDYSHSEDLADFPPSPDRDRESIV
- procedure.text: Electrophysiological Assay (EP), patch voltage clamp, NaV1.5
- Type: cell-based
- condition.parameters: HEK-293 cells, whole-cell patch clamp
Where a name gives a salt, the structure may show the parent alone.
I'd appreciate it if you could supply IC50 values for the items below.
Answers are plain numbers, in µM.

C[C@H](Oc1cc(F)c(S(=O)(=O)Nc2nccs2)cc1Cl)c1ccccc1F ... 14.3
CC[C@H](Nc1cc(F)c(S(=O)(=O)Nc2ccncn2)cc1Cl)c1ccccc1Cl [Example 277, 2,2,2-trifluoroacetate] ... 10
C[C@H](Nc1ccc(S(=O)(=O)Nc2cscn2)c(F)c1Cl)c1cc(Cl)ccc1F ... 30
O=S(=O)(Nc1nccs1)c1cc(Cl)c(NCc2cccc3ccncc23)cc1F ... 10

Please state, for each entry, its recorded IC50.
1. C[C@H](Nc1cc(F)c(S(=O)(=O)Nc2cscn2)cc1Cl)c1cc(Cl)ccc1F
2. O=S(=O)(Nc1cscn1)c1c(F)cc(NCc2c(F)ccc(F)c2CN2CCC2)cc1F
3. C[C@H](Nc1cc(F)c(S(=O)(=O)Nc2nccs2)cc1Cl)c1ccccc1F
4. O=S(=O)(Nc1cscn1)c1c(F)cc(NCc2ccccc2CN2CCC2)cc1F [Example 272, formate]

1. 10
2. 30
3. 5.15
4. 30

====

- system.tested: UniProtKB Q14524
- procedure.text: Sodium Influx Assay (Flux), NaV1.5
- condition.parameters: read-out: Flux NaV1.5 IC50; Trex HEK293 cells, ANG2 dye, inactivated state
Structures can show the parent of a compound that is named as a salt.
quantity: pIC50
Numbers only, as −log10 of the molar value.

Some molecules with recorded pIC50:
O=S(=O)(Nc1nccs1)c1cc(Cl)c(NC(c2ccccc2)C2CC2)cc1F (stereo not shown) [Example 100] ... 5.19
O=S(=O)(Nc1ncns1)c1c(F)cc(NCc2ccccc2CN2CCC2)c(Cl)c1F [Example 327, formate] ... 4.52

Please state, for each entry, its recorded pIC50.
1. Cc1cc(NS(=O)(=O)c2c(F)cc(NCc3c(F)ccc(F)c3CN3CCC3)cc2F)no1 [Example 216, 2,2,2-trifluoroacetate]
2. O=S(=O)(Nc1cccnn1)c1c(F)cc(NCc2c(F)cccc2CN2CCC2)cc1F [Example 333, formate]
3. O=S(=O)(Nc1cscn1)c1c(F)cc(NCc2c(F)cccc2CN2CC(O)(C(F)(F)F)C2)cc1F [Example 176, formate]
4. O=S(=O)(Nc1cscn1)c1ccc(NCc2c(F)ccc(F)c2CN2CCC2)c(F)c1F [Example 213, 2,2,2-trifluoroacetate]
5. O=S(=O)(Nc1ncns1)c1ccc(N[C@@H]2CCc3ccccc32)c(Cl)c1 [Example 35]

1: 4.52; 2: 4.52; 3: 4.77; 4: 4.52; 5: 5.06

====

I'd appreciate it if you could supply pIC50 values for the items below.
- system.tested: NaV1.5 (Homo sapiens (Human))
- procedure.text: Sodium Influx Assay (Flux), NaV1.5
- condition.parameters: read-out: Flux NaV1.5 IC50; Trex HEK293 cells, ANG2 dye, inactivated state
Counter-ions that a name gives are not always drawn.
Numbers only, as −log10 of the molar value.

Some compounds with recorded pIC50:
O=S(=O)(Nc1cccc(F)n1)c1cc(Cl)c(NCc2c(F)ccc(F)c2CN2CCC2)cc1F ... 4.96
O=S(=O)(Nc1cscn1)c1cc(Cl)c(NCc2c(F)ccc3cc[nH]c23)cc1F ... 4.95
CN(Cc1cccc(F)c1CNc1cc(F)c(S(=O)(=O)Nc2cscn2)c(F)c1)C1COC1 [Example 181, formate] ... 4.52
O=S(=O)(Nc1nccs1)c1cc(Cl)c(N[C@@H](CN2CCC2)c2ccccc2)cc1F [Example 66, 2,2,2-trifluoroacetate] ... 4.52
O=S(=O)(Nc1nccs1)c1ccc(N[C@H](c2ccccc2)C(F)(F)F)c(Cl)c1 [Example 4, formate] ... 5.15
C[C@H](Nc1ccc(S(=O)(=O)Nc2nccs2)cc1Cl)c1ccccn1 ... 4.52

Please state, for each entry, its recorded pIC50.
1. O=S(=O)(Nc1cscn1)c1cc(Cl)c(NCc2c(F)cccc2CN2CC(F)C2)cc1F
2. COC(C)(C)C1CN(Cc2ccccc2CNc2cc(F)c(S(=O)(=O)Nc3cscn3)c(F)c2)C1 [Example 214, 2,2,2-trifluoroacetate]
3. C[C@H](Nc1cc(F)c(S(=O)(=O)Nc2cscn2)cc1Cl)c1cccc(CN(C)C)c1 [Example 253, formate]
4. O=S(=O)(Nc1ccc(F)cn1)c1c(F)cc(NCc2c(F)cccc2CN2CCC2)cc1F [Example 296, formate]
5. Cc1cc(S(=O)(=O)Nc2ccon2)c(F)cc1NCc1c(F)cccc1CN1CCC1

1. 4.52
2. 4.79
3. 4.88
4. 4.52
5. 4.52

Please state, for each entry, its recorded pIC50.
1. O=S(=O)(Nc1cscn1)c1cc(Cl)c(N[C@H](CN2CCCC2)c2ccccc2)cc1F
2. C[C@H](Nc1cc(F)c(S(=O)(=O)Nc2nccs2)cc1Cl)c1cc(F)ccc1F
3. O=S(=O)(Nc1cscn1)c1cc(Cl)c(OCc2c(F)ccc(F)c2CN2CCC2)cc1F
4. C[C@H](Nc1cc(F)c(S(=O)(=O)Nc2cscn2)cc1Cl)c1cc(OCC2COC2)ccc1F
5. CC(C)CN(C)Cc1cccc(F)c1CNc1cc(F)c(S(=O)(=O)Nc2cscn2)c(F)c1
6. C[C@H](Oc1cc(F)c(S(=O)(=O)Nc2cscn2)cc1Cl)c1cc(Cl)ccc1F
7. C[C@H](Oc1cc(F)c(S(=O)(=O)Nc2nccs2)cc1Cl)c1ccccc1F
8. O=S(=O)(Nc1cscn1)c1c(F)cc(NCc2c(F)cccc2CN2CCC23CCC3)cc1F [Example 173, formate]

1. 4.52
2. 5.43
3. 5.06
4. 4.52
5. 4.84
6. 5.73
7. 5.34
8. 4.71

Please state, for each entry, its recorded pIC50.
1. C[C@H](Nc1cc(F)c(S(=O)(=O)Nc2cccc(F)n2)cc1Cl)c1ccccc1F
2. C[C@H](Oc1ccc(S(=O)(=O)Nc2nccs2)c(F)c1Cl)c1ccccc1F
3. O=S(=O)(Nc1nccs1)c1cc(Cl)c(N[C@H](CN2CCOCC2)c2ccccc2)cc1F [Example 75, 2,2,2-trifluoroacetate]
4. O=S(=O)(Nc1nccs1)c1cc(Cl)c(NC2(c3ccccc3F)CC2)cc1F
5. C[C@H](Nc1cc(F)c(S(=O)(=O)Nc2cscn2)c(F)c1)c1cc(Cl)ccc1F [Example 207, 2,2,2-trifluoroacetate]
6. C[C@H](Nc1cc(F)c(S(=O)(=O)Nc2ccon2)c(F)c1)c1cc(F)ccc1F

1. 5.31
2. 5.63
3. 4.66
4. 5.50
5. 5.02
6. 4.52

====

- system.tested: NaV1.6 (Homo sapiens (Human), UniProt Q9UQD0)
- Sequence (Q9UQD0 whole entry): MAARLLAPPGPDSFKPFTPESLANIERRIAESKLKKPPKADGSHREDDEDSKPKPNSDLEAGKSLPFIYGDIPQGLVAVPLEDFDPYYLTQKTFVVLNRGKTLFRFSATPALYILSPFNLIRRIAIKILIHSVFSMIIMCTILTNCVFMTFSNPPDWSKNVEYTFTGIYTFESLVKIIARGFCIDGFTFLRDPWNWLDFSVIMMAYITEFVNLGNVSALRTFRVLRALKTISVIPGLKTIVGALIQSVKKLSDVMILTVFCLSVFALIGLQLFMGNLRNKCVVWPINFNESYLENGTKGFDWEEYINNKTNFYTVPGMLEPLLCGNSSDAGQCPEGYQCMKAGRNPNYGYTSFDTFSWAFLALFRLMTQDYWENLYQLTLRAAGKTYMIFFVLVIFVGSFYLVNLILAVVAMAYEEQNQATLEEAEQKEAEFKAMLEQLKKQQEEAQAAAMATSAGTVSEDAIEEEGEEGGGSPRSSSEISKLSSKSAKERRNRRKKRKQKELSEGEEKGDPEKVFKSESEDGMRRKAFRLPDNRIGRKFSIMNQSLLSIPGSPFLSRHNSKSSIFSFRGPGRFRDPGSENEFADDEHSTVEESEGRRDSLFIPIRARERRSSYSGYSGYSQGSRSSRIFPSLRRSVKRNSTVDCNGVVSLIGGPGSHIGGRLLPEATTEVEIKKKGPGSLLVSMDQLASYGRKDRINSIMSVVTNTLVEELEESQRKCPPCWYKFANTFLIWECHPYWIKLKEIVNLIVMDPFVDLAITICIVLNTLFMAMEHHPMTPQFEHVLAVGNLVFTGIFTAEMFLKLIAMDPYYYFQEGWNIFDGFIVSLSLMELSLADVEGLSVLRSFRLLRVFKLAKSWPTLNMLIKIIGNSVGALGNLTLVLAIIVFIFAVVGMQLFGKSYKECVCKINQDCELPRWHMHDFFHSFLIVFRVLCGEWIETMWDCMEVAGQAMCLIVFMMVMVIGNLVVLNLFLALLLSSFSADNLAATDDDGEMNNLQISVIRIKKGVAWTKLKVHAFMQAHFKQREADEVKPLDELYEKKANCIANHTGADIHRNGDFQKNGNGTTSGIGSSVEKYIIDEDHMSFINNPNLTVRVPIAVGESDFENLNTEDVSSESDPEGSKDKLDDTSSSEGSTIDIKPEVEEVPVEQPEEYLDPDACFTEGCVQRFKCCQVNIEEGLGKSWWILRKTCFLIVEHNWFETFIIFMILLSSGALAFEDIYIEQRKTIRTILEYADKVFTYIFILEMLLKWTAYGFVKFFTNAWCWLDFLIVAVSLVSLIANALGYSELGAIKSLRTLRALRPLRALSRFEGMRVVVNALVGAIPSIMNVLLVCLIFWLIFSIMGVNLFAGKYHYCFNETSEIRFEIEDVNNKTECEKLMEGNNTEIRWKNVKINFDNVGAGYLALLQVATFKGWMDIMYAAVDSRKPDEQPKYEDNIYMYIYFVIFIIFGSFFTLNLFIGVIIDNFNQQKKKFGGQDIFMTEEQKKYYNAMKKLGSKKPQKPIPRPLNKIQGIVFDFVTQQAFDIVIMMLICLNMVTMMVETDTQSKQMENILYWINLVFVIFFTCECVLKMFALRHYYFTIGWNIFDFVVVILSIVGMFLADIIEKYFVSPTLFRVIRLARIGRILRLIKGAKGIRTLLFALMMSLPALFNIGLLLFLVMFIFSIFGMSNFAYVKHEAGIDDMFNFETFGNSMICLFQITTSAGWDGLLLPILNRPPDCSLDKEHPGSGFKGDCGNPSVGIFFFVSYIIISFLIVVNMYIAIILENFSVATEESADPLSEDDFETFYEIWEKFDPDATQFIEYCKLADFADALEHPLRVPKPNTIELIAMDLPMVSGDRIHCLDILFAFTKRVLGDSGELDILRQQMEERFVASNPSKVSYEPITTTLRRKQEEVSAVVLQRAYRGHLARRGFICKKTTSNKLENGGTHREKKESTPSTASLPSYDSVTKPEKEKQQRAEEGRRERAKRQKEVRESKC
- procedure.text: Electrophysiological Assay (EP), patch voltage clamp, NaV1.6;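 further: sodium current recorded at ambient temperature, channels held inactivated then briefly repolarized to −150 mV for 20 ms before a test pulse, control currents in 0.5% DMSO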
- Type: cell-based
- condition.parameters: HEK-293 cells, whole-cell patch clamp
Structures can show the parent of a compound that is named as a salt.
quantity: pIC50
Give bare numbers, as −log10 of the molar value.

O=S(=O)(Nc1cscn1)c1c(F)cc(NCc2c(F)cccc2CN2CC3(CCO3)C2)cc1F [Example 156, formate] ... 7.66
O=S(=O)(Nc1cscn1)c1c(F)cc(NCc2ccccc2CN2CCC2)cc1F [Example 272, formate] ... 7.51
O=S(=O)(Nc1cccc(F)n1)c1cc(Cl)c(N[C@H](CN2CCCC2)c2ccccc2)cc1F [Example 72, 2,2,2-trifluoroacetate] ... 6.02
C[C@H](Nc1ccc(S(=O)(=O)Nc2nccs2)cc1Cl)c1ccccc1F ... 7.41
CC[C@@H](Nc1cc(F)c(S(=O)(=O)Nc2nccs2)cc1Cl)c1ccccc1 ... 6.55

Please state, for each entry, its recorded pIC50.
1. C[C@H](Nc1ccc(S(=O)(=O)Nc2ccncn2)cc1C(F)(F)F)c1cc(F)ccc1F
2. CC(C)CC(Nc1cc(F)c(S(=O)(=O)Nc2nccs2)cc1Cl)c1ccccc1 (stereo not shown)
3. O=S(=O)(Nc1nccs1)c1cc(Cl)c(NCc2ccccc2CN2CCC2)cc1F [Example 16, 2,2,2-trifluoroacetate]
4. O=S(=O)(Nc1cscn1)c1c(F)cc(NCc2c(F)ccc(F)c2CN2CCC2)c(F)c1F [Example 215, 2,2,2-trifluoroacetate]

1. 6.91
2. 7.57
3. 8.40
4. 8.52

Please state, for each entry, its recorded pIC50.
1. CC[C@H](Nc1cc(F)c(S(=O)(=O)Nc2cccc(F)n2)cc1Cl)c1ccccc1F
2. C[C@H](Oc1cc(F)c(S(=O)(=O)Nc2cscn2)cc1Cl)c1ccccc1Cl

[6.58, 6.15]

====

- system.tested: NaV1.1 (Homo sapiens (Human), UniProt P35498)
- procedure.text: Sodium Influx Assay (Flux), NaV1.1;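 further: channels co-expressed with human β1 subunit and held open by modulators, cells exposed to compounds for one hour at room temperature, IC50 from percent inhibition of influx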
- Assay type: cell-based
- condition.parameters: Trex HEK293 cells, ANG2 dye, inactivated state
Where a name gives a salt, the structure may show the parent alone.
I'd appreciate it if you could supply IC50 values for the items below.
One number for each entry, in µM.

Some compounds with recorded IC50:
N#Cc1ccccc1CNc1cc(F)c(S(=O)(=O)Nc2nccs2)cc1Cl [Example 17] ... 0.494
O=S(=O)(Nc1nccs1)c1cc(Cl)c(OCc2ccccc2F)cc1F [Example 122] ... 30
C[C@H](Nc1ccc(S(=O)(=O)Nc2cscn2)c(F)c1Cl)c1c(F)cccc1F [Example 149] ... 3.36

Attention now shifts to the item below.
Record O=S(=O)(Nc1cscn1)c1c(F)cc(NCc2c(F)cccc2CN2CCC23CCC3)cc1F [Example 173, formate] ; system NaV1.1 (Homo sapiens (Human), UniProt P35498); IC50 = 7.22
